Value source: PubChem BioAssay (NCI)

assay: NCI Yeast Anticancer Drug Screen. Data for the bub3 strain (AID 167); settings: S. cerevisiae bub3 mutant strain, at 5.0 µM (retest, dose inferred, filed as 0.5), active compounds read high
Compounds without any hit were thinned out: in the full panel of roughly 79,000, 15% have a hit.
measure_name: growth inhibition (%)
One number for each entry, in %.

compound: CCOC(=O)c1c(Cl)nc2ccccc2c1N=[N+]=[N-]
growth inhibition / %: -21
//
compound: OCCc1ccccc1C(c1ccccc1)c1ccccc1
growth inhibition / %: 0
//
compound: COC(=O)c1cn(NS(=O)(=O)c2ccc(OC)cc2)cc1C(=O)OC
growth inhibition / %: -5

# batch: return growth inhibition for each of the 2 compounds below
1. COC(=O)c1ccccc1CC1Cc2cccc(C)c2C1=O (centres undefined)
2. COC(=O)c1ccc(NN)cc1

Return:
1. 5
2. 3

# batch: return growth inhibition for each of the 6 compounds below
1. CCCCCCCCCCCCNCCNCCN
2. O=C1CC2(CCCC2)C(=O)N1c1ccc(N2C(=O)CC3(CCCC3)C2=O)cc1
3. Cc1cccc(C)c1NC(=O)/C(Cl)=C(/Cl)C(=O)O
4. CCC(c1ccc(O)cc1)C(O)(CC)c1ccc(O)cc1 (centres undefined)
5. COc1ccc(C(=O)Nc2ccc(Cl)cc2)cc1
6. COc1ccc(/C=C/c2cc(OC)c(OC)c(OC)c2)cc1O[Si](C)(C)C(C)(C)C

Return:
1: 61; 2: 0; 3: 85; 4: -11; 5: -14; 6: -1

# batch: return growth inhibition for each of the 7 compounds below
1. CC(=O)Nc1c(Cl)ccc2c1Cc1cc([N+](=O)[O-])ccc1-2
2. CSCSCC(CO)NC(=O)/C=C/c1c(C)[nH]c(=O)[nH]c1=O (centres undefined)
3. CN(C)CC1CCc2c(ccc3ccccc23)C1=O (centres undefined)
4. Cc1c[nH]c2c(O)cc3c(c12)[C@H](CCl)CN3C(=O)c1cc2cc(NC(=O)Nc3ccc4[nH]c(C(=O)N5C[C@@H](CCl)c6c5cc(O)c5[nH]cc(C)c65)cc4c3)ccc2[nH]1
5. CCCCC(/C=N\NC(=O)c1ccc[n+](C)c1)=C/c1ccccc1
6. CC1(C)CC(=O)C2=C(C1)Nc1ccccc1CC2c1c[nH]c2ccccc12 (centres undefined)
7. CCN(CC)C(C)(C)C(=O)/C=C/c1ccc(Cl)cc1

Return:
-7
3
19
34
-4
-4
1

---

experiment: NCI Yeast Anticancer Drug Screen. Data for the cln2 rad14 strain (AID 165);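 further: 0% = growth equal to vehicle treated cultures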; conditions: S. cerevisiae cln2 rad14 strain, at 50.0 µM, active compounds read high
This is part of a sample that, as a whole, favours compounds with a hit. Of some 79,000 tested, about 15% had one in any assay.
Classification field: t = growth inhibition at or over 60%; f = growth inhibition under 60%.

Reference set, count: 5
compound: CSCS(=O)C[C@H](CO)NC(=O)/C=C/c1c(C)[nH]c(=O)[nH]c1=O (some centres undefined)
qualitative_label: t

compound: Cc1ccc(S(=O)(=O)C(Br)CC(=O)c2ccccc2)cc1 (centres undefined)
qualitative_label: t

compound: O=C1/C(=C/c2ccc3c(c2)OCO3)Sc2scc(-c3ccc(O)c(O)c3)[n+]21
qualitative_label: t

compound: CC1CC(c2ccccc2)(c2ccccc2)C(=O)C(C)N1C (centres undefined)
qualitative_label: f

compound: Cc1cccc[c]1[Sn]([Cl])([O][Sn]([Cl])([c]1ccccc1C)[c]1ccccc1C)[c]1ccccc1C
qualitative_label: t

Enquiry: hey, is growth inhibition for this one >= 60%? [O-][n+]1c2ccccc2nc2cc(Cl)ccc21
Return: f

Enquiry: hey, is growth inhibition for this one >= 60%? COC1CCC2(C)C(=CCC3C4CC(OC(C)=O)CC4(C)CCC32)C1 (centres undefined)
Return: f

Enquiry: hey, is growth inhibition for this one >= 60%? O=C(Nc1cc(Cl)c(Cl)cc1Cl)C(=O)C(C(=O)c1ccc2ccccc2c1)C1OC(=O)c2ccccc21 (centres undefined)
Return: t

Enquiry: hey, is growth inhibition for this one >= 60%? COC(=O)C1(Cc2ccc(C)cc2)Cc2c(C)cccc2C1=O (centres undefined)
Return: f

Enquiry: hey, is growth inhibition for this one >= 60%? CC(C)(C)OC(=O)c1ccc(NCC2=C(Br)C(=O)C=CC2=O)cc1
Return: t

Enquiry: hey, is growth inhibition for this one >= 60%? CCC1=CCC2C(=O)c3cc4ccccc4cc3C(=O)C2C1 (centres undefined)
Return: f

Enquiry: hey, is growth inhibition for this one >= 60%? Oc1ccc(CNC2CCCCC2)cc1
Return: f

Enquiry: hey, is growth inhibition for this one >= 60%? CC1=NC(=Cc2cccc(Cl)c2)C(=O)N1n1c(-c2ccccc2)nc2ccccc2c1=O
Return: t

Enquiry: hey, is growth inhibition for this one >= 60%? Nc1cc(F)c2c(c1F)C(=O)c1cc(F)ccc1-2
Return: f

Enquiry: hey, is growth inhibition for this one >= 60%? COc1ccccc1NC(=O)CSC(N)=O
Return: f

Enquiry: hey, is growth inhibition for this one >= 60%? N#Cc1c(N)nc2c(N=Nc3ccccc3)c(N)nn2c1Nc1ccccc1
Return: f

Enquiry: hey, is growth inhibition for this one >= 60%? COc1cc(OC)c(C(c2cc3c(cc2O)OCO3)N2CCOCC2)c(OC)c1 (centres undefined)
Return: f

Enquiry: hey, is growth inhibition for this one >= 60%? CC(C)(C)NCc1cc(C(C)(C)C)cc(-c2ccc(Cl)cc2)c1O
Return: t

Enquiry: hey, is growth inhibition for this one >= 60%? O=Cc1nc2c3cccnc3ccc2n1Cc1ccccc1
Return: f

Enquiry: hey, is growth inhibition for this one >= 60%? O=C1/C(=C\c2ccccc2)CCC/C1=C\O
Return: f

Enquiry: hey, is growth inhibition for this one >= 60%? O=C(O)C(S(=O)(=O)O)S(=O)(=O)O
Return: t

Enquiry: hey, is growth inhibition for this one >= 60%? N#CC1CCC(c2ccccc2)(c2ccccc2)C1=O (centres undefined)
Return: t

Enquiry: hey, is growth inhibition for this one >= 60%? C[N+](C)(C)CC(=O)N/N=C/c1oc(-c2c(O)ccc3ccccc23)c(-c2c(O)ccc3ccccc23)c1[N+](=O)[O-]
Return: t

Enquiry: hey, is growth inhibition for this one >= 60%? ICCCCSc1cc(-c2ccccc2)[o+]c2ccccc12
Return: f
